src = PubChem BioAssay (EPA / NIEHS)

read-out: Bcl-2 (BID) gene, BID (gene 637); experiment: LTEA_HepaRG_BID: Life Technologies and Expression Analysis (LTEA) Assay for Bcl-2 (BID) gene using HepaRG (AID 2283476); settings: mRNA level, 48 h; actives raise or lower the signal
Activity calls are given as the source filed them. How the source made its calls: active means hit-call score of the fitted dose curve at least 0.9, where 1 is the maximum; inactive means score below 0.9.
Labels: active, inactive

{"columns": ["mol", "group"],
 "data": [
  ["COc1cc2c(c(OC)c1OC)-c1ccc(OC)c(=O)cc1[C@@H](NC(C)=O)CC2", "inactive"],
  ["CC(C)c1nnc2ccc(-c3ocnc3-c3cc(F)ccc3F)cn12", "inactive"],
  ["CCCCCCOC(=O)CC(CC(=O)OCCCCCC)(OC(=O)CCC)C(=O)OCCCCCC", "inactive"],
  ["C[C@@H](Oc1ccc(CNC(=O)c2cccnc2Oc2ccc3c(c2)OCO3)c(F)c1)C(=O)O", "inactive"],
  ["Cn1c(=O)c2[nH]cnc2n(C)c1=O", "active"]
]}
